experiment: AUC (0 to 24 hrs) in CF-1 mouse at 10 mg/kg, po; format: ADME, organism-based; parameters: time < 24 hr, dose 10 mg/kg, route oral; conditions: plasma
measurement name: AUC(0-t) at 24 h (ng·h/mL)
Give the value in ng·h/mL but do not write ng·h/mL after it.

molecule | readout units | AUC(0-t) at 24 h
CC(=O)NC[C@H]1CN(c2ccc(N3CCOCC3)c(F)c2)C(=O)O1 [LINEZOLID] | ng·h/mL | 19000

Attention now turns to another entry.
Query: Given the entry "CC(=O)NC[C@H]1CN(c2ccc(N3Cc4cn(C)nc4C3)c(F)c2)C(=O)O1" , report its measured AUC(0-t) at 24 h.
Result: 23000

* * *

test: Tmax in CF-1 mouse serum at 10 mg/kg, po; type: ADME, organism-based; design: dose 10 mg/kg, route oral
measurement name: Tmax (h)
Give the value in h but do not write h after it.

Query: Given the entry "CC(=O)NC[C@H]1CN(c2ccc(N3Cc4cn(C)nc4C3)c(F)c2)C(=O)O1" , report its measured Tmax.
Result: 2

* * *

test: AUC (0 to 24 hrs) in CF-1 mouse at 10 mg/kg, sc; assay type: ADME, organism-based; parameters: time < 24 hr, dose 10 mg/kg, route subcutaneous; conditions: plasma
# maps each entry to its AUC(0-t) at 24 h
Give the value in ng·h/mL but do not write ng·h/mL after it.

entry smiles | AUC(0-t) at 24 h (ng·h/mL)
CC(=O)NC[C@H]1CN(c2ccc(N3CCOCC3)c(F)c2)C(=O)O1 | 16000

Attention now turns to another entry.
Query: Given the entry "CC(=O)NC[C@H]1CN(c2ccc(N3Cc4cn(C)nc4C3)c(F)c2)C(=O)O1" , report its measured AUC(0-t) at 24 h.
Result: 15000

* * *

experiment: Cmax in CF-1 mouse at 2 mg/kg, iv; format: ADME, organism-based; parameters: dose 2 mg/kg, route intravenous; settings: in vivo
# maps each entry to its Cmax
Kindly report the value followed by its unit.

entry smiles | Cmax
CC(=O)NC[C@H]1CN(c2ccc(N3CCOCC3)c(F)c2)C(=O)O1 | 3.3 µg/mL

Attention now turns to another entry.
Query: Given the entry "CC(=O)NC[C@H]1CN(c2ccc(N3Cc4cn(C)nc4C3)c(F)c2)C(=O)O1" , report its measured Cmax.
Result: 4.4 µg/mL

* * *

assay: Apparent oral clearance in CF-1 mouse at 10 mg/kg, po; assay type: ADME, organism-based; parameters: dose 10 mg/kg, route oral; settings: in vivo
measurement name: CL/F (mL/min/kg)
Give the value in mL/min/kg but do not write mL/min/kg after it.

entry smiles | readout units | CL/F
CC(=O)NC[C@H]1CN(c2ccc(N3CCOCC3)c(F)c2)C(=O)O1 | mL/min/kg | 8.67

Query: Given the entry "CC(=O)NC[C@H]1CN(c2ccc(N3Cc4cn(C)nc4C3)c(F)c2)C(=O)O1" , report its measured CL/F.
Result: 7.17

* * *

test: Half life in CF-1 mouse at 2 mg/kg, iv; format: ADME, organism-based; design: dose 2 mg/kg, route intravenous; conditions: in vivo
measurement name: half-life (h)
Give the value in h but do not write h after it.

compound | half-life, h
CC(=O)NC[C@H]1CN(c2ccc(N3CCOCC3)c(F)c2)C(=O)O1 [LINEZOLID] | 0.5

Attention now turns to another entry.
Query: Given the entry "CC(=O)NC[C@H]1CN(c2ccc(N3Cc4cn(C)nc4C3)c(F)c2)C(=O)O1" , report its measured half-life.
Result: 1.5

* * *

# maps each entry to its clearance
test: Clearance in CF-1 mouse at 2 mg/kg, iv; assay type: ADME, organism-based; set-up: dose 2 mg/kg, route intravenous; settings: in vivo
Give the value in mL/min/kg but do not write mL/min/kg after it.

compound | measurement name | measured
CC(=O)NC[C@H]1CN(c2ccc(N3Cc4cn(C)nc4C3)c(F)c2)C(=O)O1 | clearance | 10.5

Attention now turns to another entry.
Query: Given the entry CC(=O)NC[C@H]1CN(c2ccc(N3CCOCC3)c(F)c2)C(=O)O1 [LINEZOLID] , report its measured clearance.
Result: 15.7

* * *

# maps each entry to its half-life
experiment: Half life in CF-1 mouse at 10 mg/kg, po; format: ADME, organism-based; parameters: dose 10 mg/kg, route oral; conditions: in vivo
Give the value in h but do not write h after it.

compound | readout units | measured
CC(=O)NC[C@H]1CN(c2ccc(N3Cc4cn(C)nc4C3)c(F)c2)C(=O)O1 | h | 3.4

Attention now turns to another entry.
Query: Given the entry CC(=O)NC[C@H]1CN(c2ccc(N3CCOCC3)c(F)c2)C(=O)O1 [LINEZOLID] , report its measured half-life.
Result: 1.4
